Each recorded value in this set is attributed to patent US6548494B1.

Experimental System: purified PARP protein (Homo sapiens, UniProt P09874)
Sequence (P09874 whole entry): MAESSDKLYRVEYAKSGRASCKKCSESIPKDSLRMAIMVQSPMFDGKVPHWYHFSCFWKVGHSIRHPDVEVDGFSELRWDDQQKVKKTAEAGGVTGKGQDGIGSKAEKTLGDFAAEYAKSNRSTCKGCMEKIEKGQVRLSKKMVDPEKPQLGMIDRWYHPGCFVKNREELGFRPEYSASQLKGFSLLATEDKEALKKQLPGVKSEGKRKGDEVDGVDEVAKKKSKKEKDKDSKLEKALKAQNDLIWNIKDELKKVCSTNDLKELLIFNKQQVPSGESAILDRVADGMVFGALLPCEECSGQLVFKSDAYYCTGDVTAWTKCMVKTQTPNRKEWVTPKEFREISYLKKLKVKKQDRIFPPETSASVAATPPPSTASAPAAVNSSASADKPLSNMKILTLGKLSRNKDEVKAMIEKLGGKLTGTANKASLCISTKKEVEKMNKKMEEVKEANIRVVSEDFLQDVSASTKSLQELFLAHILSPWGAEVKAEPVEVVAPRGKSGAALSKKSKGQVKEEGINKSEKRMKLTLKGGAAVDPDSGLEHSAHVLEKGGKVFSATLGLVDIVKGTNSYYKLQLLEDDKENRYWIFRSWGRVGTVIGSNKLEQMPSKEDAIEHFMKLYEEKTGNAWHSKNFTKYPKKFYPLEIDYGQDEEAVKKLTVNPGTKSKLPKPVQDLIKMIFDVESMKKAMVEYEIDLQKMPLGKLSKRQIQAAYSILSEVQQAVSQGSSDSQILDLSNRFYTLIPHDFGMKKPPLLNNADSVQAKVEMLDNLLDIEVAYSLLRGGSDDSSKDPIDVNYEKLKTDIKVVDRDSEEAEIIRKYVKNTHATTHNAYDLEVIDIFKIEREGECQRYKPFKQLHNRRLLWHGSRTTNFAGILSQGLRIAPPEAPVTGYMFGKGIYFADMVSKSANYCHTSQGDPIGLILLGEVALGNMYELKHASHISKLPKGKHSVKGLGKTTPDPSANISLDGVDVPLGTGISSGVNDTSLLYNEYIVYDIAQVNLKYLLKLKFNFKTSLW
Experiment Summary: PARP enzyme inhibition assay
Assay type: biochemical
Condition Context: 20 nM purified PARP (5 nM for tight-binding inhibitors), 500 μM NAD+, 25° C.; several values in one cell = repeat determinations; read-out: Inhibition Constant Ki
Listing of recorded Ki by entry.
Report the figure in nM without appending any unit label.

Here's what some known entries look like.
| Molecule | Ki / nM |
| --- | --- |
| N/C(=N\O)c1c(-c2ccc(F)cc2)n2c3c(cccc13)C(=O)NCC2 [Example 155] | 87 |
| O=C1NCCn2c(-c3ccc(C(Cc4ccccc4)N4CCCC4)cc3)nc3cccc1c32 (stereo not shown) [Example 247] | 5.4 |
| O=C1NCCn2c(-c3ccc(CNCc4ccccc4)cc3)nc3cccc1c32 [Example 196] | 3.9 |
| O=C1NCCn2c(-c3cccc(Oc4cccc(C(F)(F)F)c4)c3)nc3cccc1c32 [Example 61] | 6.2 |
| O=C1NCCn2c(-c3ccc(C4CCCNC4)cc3)nc3cccc1c32 (stereo not shown) [Example 142] | 3.8 |
| O=C1NCCn2c(-c3cccc(C4OCCO4)c3)nc3cccc1c32 [Example 55] | 10 |
| CCN(CCc1ccccn1)Cc1ccc(-c2nc3cccc4c3n2CCNC4=O)cc1 [Example 203] | 4.6 |
| COc1ccc(CCNCc2ccc(-c3nc4cccc5c4n3CCNC5=O)cc2)cc1 [Example 186] | 5.5 |

Form field Ki, entry O=C1NCCn2c(-c3ccc(Oc4ccccc4)cc3)nc3cccc1c32 [Example 78] : 5.2

Input O=C1NCCn2c(-c3cccc(Oc4ccccc4)c3)nc3cccc1c32 [Example 6] . Output Ki: 4.3

Looking up O=C1NCCn2c(-c3ccccc3)cc3cccc1c32 [Example 33] , I see its Ki listed as 14.3

N#Cc1ccc(Oc2ccc(-c3nc4cccc5c4n3CCNC5=O)cn2)cc1 [Example 109] yielded Ki of 5.5

Field Ki (entry O=C1N[C@@H](COCc2ccccc2)Cn2c(-c3ccc(Cl)cc3)nc3cccc1c32 [Example 237b] ) reads 30
